Attribution: ChEMBL document CHEMBL1157539

# Test system: HepG2
# experimentDescription: GSK_TCMDC: Percent inhibition of human HepG2 cell line. Test compounds present at 10uM.
# Assay type: functional
Kindly state Inhibition for each of the entries shown.
// units = %; emit number, no label

Exam item: Give the measured Inhibition of CC[C@H]1CN2CC[C@H]1C[C@@H]2[C@@H](O)c1ccnc2ccc(OC)cc12.Cl .
Marked response: 0

Exam item: Give the measured Inhibition of CS(=O)(=O)Nc1ccc2[nH]cc(C3CC4CCC(C3)N4CC3CCC(NC(=O)/C=C/c4ccc(Cl)c(Cl)c4)CC3)c2c1 (stereo not given) .
Marked response: 3

Exam item: Give the measured Inhibition of CCCCCc1cc(O)c2c(c1)OC(C)(C)c1ccncc1-2.Cl .
Marked response: 0

Exam item: Give the measured Inhibition of CN1CC=C(c2c[nH]c3ccc(OC(=O)c4ccccc4)cc23)C1 .
Marked response: 12

Exam item: Give the measured Inhibition of CO/C(=C\C=C\c1cc2cc(Cl)c(Cl)cc2[nH]1)C(=O)N[C@H]1CN2CCC1CC2 .
Marked response: 43

Exam item: Give the measured Inhibition of CC[C@H]1CN2CC[C@@H]1C[C@H]2[C@H](O)c1cc(-c2ccc(F)cc2)nc2ccc(O)cc12.Cl .
Marked response: 25

Exam item: Give the measured Inhibition of Cc1[nH]c2ccc(O)cc2c1C1CCN(CC2CCC(NC(=O)/C=C/c3c(Cl)cccc3Cl)CC2)CC1 (stereo not given) .
Marked response: 25

Exam item: Give the measured Inhibition of Cc1[nH]c2c(C)cc(NS(C)(=O)=O)cc2c1C1CCN(CC2CCN(C(=O)/C=C/c3ccc(Cl)c(Cl)c3)CC2)CC1 .
Marked response: 33

Exam item: Give the measured Inhibition of CC(=O)Nc1ccc(CN2CCC(N(C)c3ccc(NC(=O)c4cccc(C)c4)cc3)CC2)cc1.O=C(O)C(F)(F)F .
Marked response: 0

Exam item: Give the measured Inhibition of Cc1ccc(CC(C)NCC(O)c2cccc(C(F)(F)F)c2)cc1.O=C(O)/C=C/C(=O)O (stereo not given) .
Marked response: 5

Exam item: Give the measured Inhibition of COCCNCc1ccc(-c2ccc(CN(C(=O)NC3CCCCC3)C3CCN(Cc4ccccc4)CC3)cc2)cc1.O=C(O)C(F)(F)F .
Marked response: 29

Exam item: Give the measured Inhibition of COc1cc(CN2CCN(c3ccnc(N(C)C4CCN(C)CC4)n3)CC2)cc(Cl)c1O .
Marked response: 11

Exam item: Give the measured Inhibition of O.Oc1cccc(C2CCCN(CCc3c[nH]c4ccccc34)C2)c1 (stereo not given) .
Marked response: 0

Exam item: Give the measured Inhibition of OC(CNCc1ccccc1OC(F)F)c1cccc(C(F)(F)F)c1 (stereo not given) .
Marked response: 2

Exam item: Give the measured Inhibition of O=C(/C=C/c1ccc(Cl)c(Cl)c1)NCc1ccc(CN2CCC(c3c[nH]c4ccccc34)CC2)cc1 .
Marked response: 59

Exam item: Give the measured Inhibition of CCCN(CC(=O)NCCc1ccccc1)c1ccc(C#N)c2ccccc12.O=C(O)C(F)(F)F .
Marked response: 8

Exam item: Give the measured Inhibition of O=C(/C=C/c1ccc(O)cc1)NC1CCC(CN2CCC(c3c[nH]c4ccccc34)CC2)CC1 (stereo not given) .
Marked response: 21

Exam item: Give the measured Inhibition of O=C(NC1CCC(CN2CCC(c3c[nH]c4ccccc34)CC2)CC1)c1cc(-c2ccccc2)c(C(F)(F)F)s1 (stereo not given) .
Marked response: 55

Exam item: Give the measured Inhibition of CN1CCC(N(C)c2nccc(N3CCN(Cc4cncn4Cc4ccccc4)CC3)n2)CC1 .
Marked response: 15

Exam item: Give the measured Inhibition of Cc1cccc(C(=O)Nc2ccnc(N(C)C3CCN(Cc4cccc(O)c4)CC3)c2)c1.O=C(O)C(F)(F)F .
Marked response: 5

Exam item: Give the measured Inhibition of CCCCCC(C)C(C)c1cc(O)c2c(c1)OC(C)(C)c1cnccc1-2.Cl (stereo not given) .
Marked response: 7

Exam item: Give the measured Inhibition of CC(Cc1ccc(OCCCCOc2ccccc2)cc1)NCCCn1ccnc1 (stereo not given) .
Marked response: 100

Exam item: Give the measured Inhibition of CO[C@@H]1C[C@@H](C(=O)Nc2ccccc2)N(c2ccc(C#N)c3ccccc23)C1 .
Marked response: 7

Exam item: Give the measured Inhibition of CC(Cc1ccc(OCCCCOc2ccccc2)cc1)NCCCc1nc2ccccc2[nH]1 (stereo not given) .
Marked response: 99

Exam item: Give the measured Inhibition of CCCc1cc(O)c2c3c(c(=O)oc2c1)CN(C)CC3 .
Marked response: 12

====

# System: HepG2
# experimentDescription: GSK_TCMDC: Percent inhibition of human HepG2 cell line. Test compounds present at 10uM.
# Type: functional
Threshold rule: Inhibition greater than or equal to 10% is 1.0; below that, 0.0.

Exam item: Hi, just wondering whether CC[C@H]1CN2CC[C@H]1C[C@H]2[C@H](O)c1cc(N2CCCC2)nc2ccc(OC)cc12 shows Inhibition of 10% or higher.
Marked response: 0.0

Exam item: Hi, just wondering whether CN(C)CCCn1cc(C(=O)OC2CC3CCC(C2)N3C)c2cc(-c3ccccc3)ccc21.Cl (stereo not drawn) shows Inhibition of 10% or higher.
Marked response: 1.0

Exam item: Hi, just wondering whether O=C(CCCCCc1ccccc1)NC1CCC(CN2CCC(c3c[nH]c4ccccc34)CC2)CC1 (stereo not drawn) shows Inhibition of 10% or higher.
Marked response: 1.0

Exam item: Hi, just wondering whether CC(C)CNCc1cccc(-c2ccccc2CN(C(=O)Nc2ccccc2)C2CCN(Cc3ccccc3)CC2)c1.O=C(O)C(F)(F)F shows Inhibition of 10% or higher.
Marked response: 1.0

Exam item: Hi, just wondering whether CCOC(C(=O)OCC1CCCN1C(C)C)(c1ccccc1)c1ccccc1 (stereo not drawn) shows Inhibition of 10% or higher.
Marked response: 0.0

Exam item: Hi, just wondering whether COc1cc(CC(C)NCC(O)c2cccc(C(F)(F)F)c2)ccc1OCc1ccccc1 (stereo not drawn) shows Inhibition of 10% or higher.
Marked response: 0.0

Exam item: Hi, just wondering whether CN(c1cc(NC(=O)c2ccccc2)ccn1)C1CCN(Cc2cccc(F)c2)CC1.O=C(O)C(F)(F)F shows Inhibition of 10% or higher.
Marked response: 0.0

Exam item: Hi, just wondering whether COc1ccc(C[C@H]2NC[C@H](O)[C@H]2OC(C)=O)cc1 shows Inhibition of 10% or higher.
Marked response: 1.0

Exam item: Hi, just wondering whether OC(CNC1CCCCC1)c1ccc(Cl)c(Cl)c1 (stereo not drawn) shows Inhibition of 10% or higher.
Marked response: 1.0

Exam item: Hi, just wondering whether CC(=O)N(Cc1ccc(-c2ccc(CNCCc3ccccc3)cc2)cc1)C1CCN(Cc2ccccc2)CC1.O=C(O)C(F)(F)F shows Inhibition of 10% or higher.
Marked response: 1.0

Exam item: Hi, just wondering whether c1ccc(C(OCCC2CCN(Cc3cccnc3)CC2)c2ccccc2)cc1 shows Inhibition of 10% or higher.
Marked response: 1.0

Exam item: Hi, just wondering whether CCCCCCc1cc(O)c2c3c(c(=O)oc2c1)CCN(C)C3 shows Inhibition of 10% or higher.
Marked response: 0.0

Exam item: Hi, just wondering whether Br.CNCCc1c(O)ccc2ccccc12 shows Inhibition of 10% or higher.
Marked response: 0.0

Exam item: Hi, just wondering whether COc1cc2nc(N(C)C3CCN(Cc4ccccc4)CC3)nc(N)c2cc1OC shows Inhibition of 10% or higher.
Marked response: 1.0

Exam item: Hi, just wondering whether Cc1ccc(C)c(N2CCN(Cc3ccccc3O)CC2)c1 shows Inhibition of 10% or higher.
Marked response: 1.0

Exam item: Hi, just wondering whether CN(c1cc(NC(=O)c2ccc(F)cc2)ccn1)C1CCN(Cc2cccc(F)c2)CC1.O=C(O)C(F)(F)F shows Inhibition of 10% or higher.
Marked response: 1.0

Exam item: Hi, just wondering whether Cc1ccccc1CNCC(O)c1cccc(C(F)(F)F)c1 (stereo not drawn) shows Inhibition of 10% or higher.
Marked response: 0.0

Exam item: Hi, just wondering whether CC[C@H]1CN2CC[C@H]1C[C@H]2[C@H](O)c1cc(-c2ccccc2F)nc2ccc(OC)cc12.Cl shows Inhibition of 10% or higher.
Marked response: 1.0

Exam item: Hi, just wondering whether OC(CNC12CC3CC(CC(C3)C1)C2)c1cccc(C(F)(F)F)c1 (stereo not drawn) shows Inhibition of 10% or higher.
Marked response: 1.0

Exam item: Hi, just wondering whether Br.CCCCCCCSc1ccc(CC(C)NCC(O)c2cccc(Cl)c2)cc1 (stereo not drawn) shows Inhibition of 10% or higher.
Marked response: 1.0

Exam item: Hi, just wondering whether COc1ccc(O)c(CN2CCN(c3cc(C)ccc3C)CC2)c1 shows Inhibition of 10% or higher.
Marked response: 0.0

Exam item: Hi, just wondering whether CC[C@H]1CN2CC[C@H]1C[C@H]2[C@H](O)c1ccnc2ccc(O)cc12.Cl shows Inhibition of 10% or higher.
Marked response: 1.0

Exam item: Hi, just wondering whether O=C(/C=C/c1ccc(Cl)c(Cl)c1)N1CCC(CN2CCC(c3c[nH]c4ccccc34)C(O)C2)CC1 (stereo not drawn) shows Inhibition of 10% or higher.
Marked response: 1.0

Exam item: Hi, just wondering whether O=C(/C=C/c1ccc(Cl)c(Cl)c1)N1CCC(CN2CCC(c3c[nH]c4ccc(NS(=O)(=O)c5cccs5)cc34)CC2)CC1 shows Inhibition of 10% or higher.
Marked response: 1.0

Exam item: Hi, just wondering whether C=CC12CCN(CC1)C(C(O)c1ccnc3ccc(OC)cc13)C2 (stereo not drawn) shows Inhibition of 10% or higher.
Marked response: 0.0

Exam item: Hi, just wondering whether CN(C)c1cccc(NC(=O)NC2N=C(c3ccccc3)c3ccccc3N(CC(=O)N(C)c3ccccc3)C2=O)c1 (stereo not drawn) shows Inhibition of 10% or higher.
Marked response: 0.0

Exam item: Hi, just wondering whether CCCCCOc1ccc(CC(C)NCC(O)c2cccc(Cl)c2)cc1 (stereo not drawn) shows Inhibition of 10% or higher.
Marked response: 0.0

Exam item: Hi, just wondering whether O=C1Nc2cccc3c2C1(CCCCN1CC=C(c2c[nH]c4ncccc24)CC1)CCC3 (stereo not drawn) shows Inhibition of 10% or higher.
Marked response: 1.0

Exam item: Hi, just wondering whether CC[C@H]1CN2CC[C@@H]1C[C@H]2[C@H](O)c1cc(-c2ccc(Cl)c(Cl)c2)nc2ccc(O)cc12 shows Inhibition of 10% or higher.
Marked response: 0.0

Exam item: Hi, just wondering whether CC[C@@]1(O)C(=O)OCc2c1cc1n(c2=O)Cc2c-1nc1cc3c(cc1c2CN1CCOCC1)OCO3.O=C(O)C(F)(F)F shows Inhibition of 10% or higher.
Marked response: 1.0

Exam item: Hi, just wondering whether CC1(CCCCN2CC=C(c3c[nH]c4ccccc34)CC2)C(=O)Nc2ccccc21 (stereo not drawn) shows Inhibition of 10% or higher.
Marked response: 0.0
